- TEST_SYSTEM: Aβ42 (Homo sapiens)
- Sequence (P05067 672-713): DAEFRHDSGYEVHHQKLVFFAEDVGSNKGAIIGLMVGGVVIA
- TEST_SUMMARY: Th-T (thioflavin-T) assay of Aβ42 aggregation
- Assay type: biochemical
- CONDITIONS: head suffix _10 (concentration 10); reading M65
Lab note: compare Th-T fluorescence of Aβ42 (sheet Fig. 7a), mean of three wells against 2. Equal or greater, write Yes. Smaller, write No.

1) C=C1CCC2C(C)(CCC=C(C)C)C(O)CCC2(C)C1Cc1c(OC)oc(C)c(C(=O)OC)c1=O (centres unmarked) | Yes
2) C=C1CCC2C(C)(CCC=C(C)C)C(O)CCC2(C)C1Cc1c(OC)oc(CO)c(C)c1=O (centres unmarked) | Yes
3) C=C1CC[C@@H]2[C@](C)(CC[C@H]3O[C@H](C=C(C)C)C[C@@]23C)[C@@H]1Cc1c(OC)oc(CO)c(C)c1=O | Yes
4) C=C1CC[C@@H]2[C@](C)(CC[C@H]3O[C@H](C=C(C)C)C[C@@]23C)[C@@H]1Cc1c(OC)oc(CO)c(C(=O)OC)c1=O | No
5) C=C1CCC2C(C)(CCC=C(C)C)C(O)CCC2(C)C1Cc1c(OC)oc(CO)c(C(=O)OC)c1=O (centres unmarked) | No
